System: biotinyl-Val-oxazolone
Experiment: self-aminoacylation, catalytic enhancement (BVO) (fold over background); higher = more active; k-Seq, kA / k0A0; sequences stand for … in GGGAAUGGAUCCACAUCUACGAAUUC…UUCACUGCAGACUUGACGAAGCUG
Fewer inactive variants are shown than the library holds.
Task for the reader: assign each of the following sequences its reported self-aminoacylation.
One number for each entry.

ENTRY_SEQUENCE	self-aminoacylation
AUUACCCUACUCAUCGAGUGA [Fam2.1 aminoacylation ribozyme variant]	3.19
CCACACUUCAAUCAACCGGUC [Fam1B.1 aminoacylation ribozyme variant]	1.02

Would you mind listing self-aminoacylation for each of the following sequences?
1. ACGUUUGCUAAUAGUCGCAAC [Fam3.1 aminoacylation ribozyme variant]
2. AAGUUUGGUAAUACUCGCAAG [Fam3.1 aminoacylation ribozyme variant]
3. AUUACCCGGGUCAUCGAGUCA [Fam2.1 aminoacylation ribozyme variant]
4. AUUCUCCUAGGUCAACGGGUG [Fam2.2 aminoacylation ribozyme variant]
5. AUUACCCUGGUGAUCGCGUGA [Fam2.1 aminoacylation ribozyme variant]
6. AUUACCCUGGUCAUAGAGUGG [Fam2.1 aminoacylation ribozyme variant]
7. AUUCACCUAGGUAAUUGGGUG [Fam2.2 aminoacylation ribozyme variant]

1. 1.18
2. 1.04
3. 1.16
4. 3.61
5. 4.19
6. 1.43
7. 2.63

Would you mind listing self-aminoacylation for each of the following sequences?
1. AAGUUUGCUAACAGUCGCAAG [Fam3.1 aminoacylation ribozyme variant]
2. CGACUUCAAACAAUCGGUCUC [Fam1A.1 aminoacylation ribozyme variant]
3. CCACACUUGAACCAAUCGGUC [Fam1B.1 aminoacylation ribozyme variant]
4. AUUCCCCGAGGUCAUCGGGUG [Fam2.2 aminoacylation ribozyme variant]

1.06
1.35
0.819
14

Would you mind listing self-aminoacylation for each of the following sequences?
1. AAGUUUGCUAAAUGUCGCAAG [Fam3.1 aminoacylation ribozyme variant]
2. AAGUUGGAUAAUAGUCGCAAG [Fam3.1 aminoacylation ribozyme variant]
3. AUUCACCUAGGUCAUCCAGUG [Fam2.2 aminoacylation ribozyme variant]
4. AUUACGCUGGUCAUUGAGUGA [Fam2.1 aminoacylation ribozyme variant]
5. AUUCACCGAGGUCAUGGGGUG [Fam2.2 aminoacylation ribozyme variant]

0.837
1.01
4.21
3
6.55
